# ASSAY_SYSTEM: Proteasome subunit beta type-8 (Homo sapiens, UniProt P28062)
# Sequence (P28062 whole entry): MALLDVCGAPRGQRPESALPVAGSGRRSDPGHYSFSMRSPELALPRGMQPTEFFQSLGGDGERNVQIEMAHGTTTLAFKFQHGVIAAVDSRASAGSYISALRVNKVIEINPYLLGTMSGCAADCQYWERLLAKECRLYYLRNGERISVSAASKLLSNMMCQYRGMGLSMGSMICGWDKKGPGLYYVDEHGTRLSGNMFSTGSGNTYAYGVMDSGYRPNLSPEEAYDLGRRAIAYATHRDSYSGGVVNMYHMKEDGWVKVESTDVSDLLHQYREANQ
# PROTOCOL_SUMMARY: Inhibition of human 20S immunoproteasome beta-5i subunit using Suc-LLVY-AMC as substrate preincubated for 2 hrs followed by substrate addition and measured after 1 hr by fluorescence intensity assay
OBSERVATION_TYPE: IC50 (nM)

Use the examples below as a reference point.
O=C(Cc1ccccc1)N[C@@H](Cc1coc2ccccc12)B(O)O = 2.1
O=C(N[C@@H](Cc1coc2ccccc12)B(O)O)[C@H]1CCCO1 = 5.9
CC(C)C[C@H](NC(=O)Cc1ccccc1)B(O)O = 1000

P: N#Cc1ccccc1CC(=O)N[C@@H](Cc1coc2ccccc12)B(O)O
Q: O=C(Cc1ccccc1)N[C@@H](Cc1cc2ccccc2o1)B(O)O
R: Cc1ccc(C[C@H](NC(=O)Cc2ccccc2)B(O)O)cc1
Query: Please put the entries in order of rising IC50. Labels, requested order.
Result: P, Q, R
(P: 5.2 nM, Q: 29 nM, R: 91 nM)
